Data provenance is PubChem BioAssay (NCI).

Quick reference: growth inhibition of the listed items.
Assay: NCI Yeast Anticancer Drug Screen. Data for the sgs1 mgt1 strain (AID 161);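 also: 0% = growth of cultures given vehicle only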
Conditions: S. cerevisiae sgs1 mgt1 strain, hits give high values; at 50.0 µM unless noted
Protocol: Growth inhibition of yeast strains with defined genetic alterations is measured as a screen for potential anti-cancer activity. Selected strains with alterations in DNA damage repair or cell cycle control were exposed to compounds and growth inhibition was measured relative to vehicle treated controls. The strain used in this assay is sgs1 mgt1
About 79,000 compounds went through this panel and 15% of them were active in at least one assay; those are over-represented in the sample as a whole.
Numeric answer only, unit % assumed.

Recorded growth inhibition, per entry:
INSERT INTO results (compound, readout_value) VALUES
  ('Cc1cc[n+](CCC(N)=O)cc1', -3),
  ('CC(=O)Nc1ccc(S(=O)(=O)O)c(OC(C)=O)c1', 9.85),
  ('Cc1ccc(/C=C2\CCCC\C2=N\O)cc1', 2.3),
  ('CC(=O)NC(C(=O)O)C(C)C (stereo unspecified)', -4.55),
  ('Nc1sc(=S)[nH]c1-c1ccccc1', -24.9);

## Input Suppose we examine the compound CCN(CC)CCCNc1ncnc2c1C(c1ccccc1)c1ccccc1-2 (stereo unspecified) ; what growth inhibition value has been reported?
## Output 1.7

## Input Can you handle CN(C)CC[N+]1=Nc2cccc3cccc(c23)N1 next?
## Output -2.4

## Input Can you handle C=CCN(N=O)C(=O)N(CCCCC(NC(C)=O)C(=O)NCc1ccccc1)Cc1ccccc1 (stereo unspecified) next?
## Output -21.4

## Input Can you handle COC(=O)c1[nH]c(=O)c2ccc([N+](=O)[O-])cc2c1O next?
## Output -14.9

## Input Can you handle CCOC(=O)C(C)(c1[nH]c2ccccc2c1C)c1[nH]c2ccccc2c1C next?
## Output -14.2

## Input Can you handle CCOC(=O)C(C)N1C(=O)c2ccccc2C1=O (stereo unspecified) next?
## Output -22

## Input Can you handle O=C1CSC(c2cc([N+](=O)[O-])ccc2Cl)N1c1nncs1 (stereo unspecified) next?
## Output 37.2

## Input Can you handle CS(=O)(=O)OCCN(CCOS(C)(=O)=O)c1cc(C(N)=O)c([N+](=O)[O-])cc1[N+](=O)[O-] next?
## Output -11.7

## Input Can you handle CCC(C)(C)NC(N)=O next?
## Output 8.55

###

test: NCI Yeast Anticancer Drug Screen. Data for the rad50 strain (AID 155);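 also: 0% = growth of vehicle-only cultures of the same strain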; settings: S. cerevisiae rad50 strain growth inhibition, hits give high values; at 50.0 µM unless noted
The panel holds about 79,000 compounds, 15% with a hit somewhere; the sample as a whole holds those more often. Active and inactive are the calls of the source. No stated cut-off is given here; in the data, active means growth inhibition above about 70%; inactive means the rest.
measured.metric: growth inhibition

Recorded growth inhibition, per entry:
INSERT INTO measurements (compound, measured_metric, readout_value) VALUES
  ('CN(C)C(=S)Oc1ccc(-c2c(-c3ccccc3)oc3ccc4ccccc4c23)cc1', 'growth inhibition', '28.2% (inactive)'),
  ('CCS(=O)(=O)c1ccc(NC(=O)OC2CCC3(C)C(=CCC4C3CCC3(C)C(C(C)CCCC(C)C)CCC43)C2)cc1 (stereo not given)', 'growth inhibition', '21.5% (inactive)'),
  ('O=c1[nH]c(=O)c2cc(Cl)ccc2[nH]1', 'growth inhibition', '3.2% (inactive)'),
  ('c1ccc(N2CN(c3ccccc3)C2)cc1', 'growth inhibition', '-19.4% (inactive)');

## Input Suppose we examine the compound Cc1ccc(C)c(NC(=O)c2cccc(C(=O)Nc3cc(C)ccc3C)c2)c1 ; what growth inhibition value has been reported?
## Output -13.1% (inactive)

###

experiment: NCI Yeast Anticancer Drug Screen. Data for the rad50 strain (AID 155);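 also: 0% = growth of vehicle-only cultures of the same strain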; conditions: S. cerevisiae rad50 strain growth inhibition, hits give high values; at 50.0 µM unless noted
This is part of a sample that, as a whole, favours compounds with a hit. Of some 79,000 tested, about 15% had one in any assay. Activity calls are given as the source filed them. Cut-off read from the data, not from the text of the source: active = growth inhibition above about 70%; inactive = the rest.
Quick reference: growth inhibition of the listed items.

INSERT INTO results (compound, measured_metric, readout_value) VALUES
  ('CC(=O)NC1(NC(C)=O)C2CC(C1Cc1ccccc1)C(C)(C)C2C (configuration not stated)', 'growth inhibition', '4.75% (inactive)'),
  ('COc1cc(Nc2nc3ccc(C(F)(F)F)cc3nc2C(=O)O)cc(OC)c1OC', 'growth inhibition', '15.8% (inactive)'),
  ('C=C1COC(O)(C2OCOC(C3CC(=O)NC(=O)C3)C2O)C1C (configuration not stated)', 'growth inhibition', '88% (active)');

## Input Suppose we examine the compound CC(C)(C)C1CCC2(CC1)CCN(CCCN1CCOCC1)CC2 ; what growth inhibition value has been reported?
## Output 99% (active)

## Input Can you handle C1CSCCSS[C@@H]2CCCCC2SC1 (some centres not stated) next?
## Output -12.8% (inactive)

###

experiment: NCI Yeast Anticancer Drug Screen. Data for the bub3 strain (AID 167); settings: S. cerevisiae bub3 mutant strain; at 50.0 µM unless noted
This is part of a sample that, as a whole, favours compounds with a hit. Of some 79,000 tested, about 15% had one in any assay. Activity calls are given as the source filed them. Rule as the data show it: active = growth inhibition above about 70%; inactive = the rest. Where a SMILES comes first, the peptide text is derived from it. [ ]: non-standard residue; d: D form. The star is where a group is joined. Cbz = O=C(OCc1ccccc1)*; Nva = CCC[CH](N)C(=O)O
Choose one outcome from this list and give only that: active, inactive

INSERT INTO measurements (molecule, classification) VALUES
  ('CN1C(=O)OC2OC(C)(c3ccc(S(=O)(=O)c4ccccc4)cc3)C(=O)CC21 (stereo not drawn)', 'inactive');

## Input Recorded test call requested for OC1(c2cccc(C(F)(F)F)c2)CCN(C2CC2c2ccccc2)CC1 (stereo not drawn)
## Output active

## Input Can you handle CN(C)c1ccc(C(=O)Cc2ccc3ccccc3n2)cc1 next?
## Output active

## Input Can you handle CCCC(NC(=O)OCc1ccccc1)C(=O)NC(CC(C)C)C(N)=O (stereo not drawn) (Cbz-[Nva]-Leu-NH2; configuration not given here) next?
## Output inactive

## Input Can you handle Cc1cccc(Cl)c1NC(=O)c1c(Cl)c(Cl)c(Cl)c(Cl)c1C(=O)O next?
## Output inactive

## Input Can you handle COc1ccc2oc3cc(Cl)ccc3c(=O)c2c1 next?
## Output inactive

## Input Can you handle O=C1OCCOCCOCCOCCOC(=O)c2cccc1n2 next?
## Output inactive

## Input Can you handle CCC1CSC(NS(=O)(=O)c2ccc(N)cc2)=N1 (stereo not drawn) next?
## Output inactive

## Input Can you handle Cc1cc(O)c(C)cc1O next?
## Output inactive

###

assay: NCI Yeast Anticancer Drug Screen. Data for the mec2-1 strain (AID 157); conditions: S. cerevisiae mec2-1 strain, hits give high values; at 50.0 µM unless noted
This is part of a sample that, as a whole, favours compounds with a hit. Of some 79,000 tested, about 15% had one in any assay.
Quick reference: growth inhibition of the listed items.
Numeric answer only, unit % assumed.

INSERT INTO results (molecule, measured_metric, readout_value) VALUES
  ('CCN(CC)CCC(=O)c1ccc(Cl)cc1', 'growth inhibition', 21.4);

## Input Suppose we examine the molecule O=S(=O)(c1ccccn1)c1nc2ccccc2s1 ; what growth inhibition value has been reported?
## Output 7.1

## Input Can you handle O=C(Nc1ccc2c(c1)Cc1ccccc1-2)c1cccc2ccccc12 next?
## Output -20.8

## Input Can you handle CN(Cc1ccccc1)C(=O)Nc1ccc(Cl)c(Cl)c1 next?
## Output 99

## Input Can you handle C/C(=N/NC(N)=S)c1ccc([N+](=O)[O-])cc1 next?
## Output -8.8

## Input Can you handle C=CCCCC12CCCc3cccc(c31)NC2=O (stereo not drawn) next?
## Output 17.4

## Input Can you handle C/C=C(/Br)C(=O)O next?
## Output -6

## Input Can you handle COC(=O)N/N=C(/CCC(=O)Nc1ccc(C)c(C)c1)CC(=O)C(C)(C)C next?
## Output -12.1

## Input Can you handle CCN(CC)CCNc1ccc(COC(=O)NC)c2sc3ccccc3c(=O)c12 next?
## Output -2.4

## Input Can you handle Cc1cc(=O)n2nc(CCl)sc2n1 next?
## Output 10.2

## Input Can you handle CCCCCCCCCCCCOC(=O)NC1c2ccccc2Oc2ccccc21 next?
## Output 17.6

## Input Can you handle Cc1ccc([N+](=O)[O-])cc1NC(=O)N(Cc1ccccc1)Cc1ccccc1 next?
## Output 1.5

## Input Can you handle CC1Cn2c(Cc3ccccc3)nnc2S1 (stereo not drawn) next?
## Output 1.25

###

assay: NCI Yeast Anticancer Drug Screen. Data for the bub3 strain (AID 167); details: S. cerevisiae bub3 mutant strain, hits give high values; at 50.0 µM unless noted
The panel holds about 79,000 compounds, 15% with a hit somewhere; the sample as a whole holds those more often.
Quick reference: growth inhibition of the listed items.
Numeric answer only, unit % assumed.

Recorded growth inhibition, per entry:
INSERT INTO measurements (compound, unit_tag, readout_value) VALUES
  ('COc1nc2nccnc2c(=O)n1C', '%', -7.55),
  ('COc1ccc(C2=NC(CO)[C@H](c3ccccc3)O2)cc1OC (some centres not stated)', '%', -3.75),
  ('COc1ccc(COC(=O)Nc2ccccc2F)c(OC)c1OC', '%', 26.6),
  ('O=[N+]([O-])c1cc(C(Nc2nncs2)Nc2nncs2)ccc1Cl', '%', 2.5),
  ('COc1ccc2nc3ccccc3c(NCCC[N+](C)(C)[O-])c2c1[N+](=O)[O-]', '%', -13.1);

## Input Suppose we examine the compound N#CCN1CCc2ccccc2C1 ; what growth inhibition value has been reported?
## Output -11.7

## Input Can you handle CCOC(=O)CNC(=O)SCc1ccccc1 next?
## Output -11.3

## Input Can you handle NC(=O)C1OCOC2C(CO)OCOC12 (configuration not stated) next?
## Output -7.4

## Input Can you handle CC1CC(C)NC(=S)N1 (configuration not stated) next?
## Output 3.25

## Input Can you handle CC(=O)Nc1ccc(CCCc2ccc([N+](=O)[O-])cc2)cc1 next?
## Output 1.6
